test: inhibitors of GR-EGFP nuclear translocation, primary screen, dynein cargo transport inhibitor project, imaging, high-content, 3617.4 mouse cells (AID 1381); conditions: measured here: cytoplasmic GR-EGFP intensity, at 20 µM, stronger effect = higher value, stimulated with dexamethasone, 1 µM
Screen size: about 220,000 compounds; about 1,000 (0.45%) were called active. Many of the other results were omitted from the sample, so actives are more common in it than they were.
readoutType: z-score

Some compounds with known z-score results, for comparison:
Query :: Give its z-score value. Item: CCCn1c(SCC(=O)Nc2ccc(C)c(S(=O)(=O)N3CCOCC3)c2)n[nH]c1=O
Result :: -0.261

Query :: GET /values?readout=z-score&item= Nc1ncnc(Nc2cccc(Cl)c2Cl)n1
Result :: -0.225

Query :: Param item = O=S1(=O)CCC(NC(=S)SCc2ccccc2Br)C1 (stereo unspecified) ; retrieve measured z-score.
Result :: 1.57

I need z-score for every entry listed below, if you could help.
1. CC(NC(=S)Nc1ccccc1)C1COc2ccccc2O1 (stereo unspecified)
2. CCCSC(=S)NC1CCS(=O)(=O)C1 (stereo unspecified)
3. Cc1cccc(C)c1NC1=NC(=S)N(c2ccc(N(C)C)cc2)C1(C)C
4. S=c1[nH]nc(-c2cccnc2)n1/N=C/C(Cl)=C\c1ccccc1
5. Nn1cnnc1N/N=C/c1cc([N+](=O)[O-])c(Cl)cc1Cl
6. O=C(CSc1ccccc1F)NC1CCS(=O)(=O)C1 (stereo unspecified)

Result ::
-0.0607
-0.0684
-0.0144
0.22
0.536
-0.305

For every item below, please supply its z-score.
1. CC1CCN(C(=O)c2ccc(CSc3ccc(Cl)cc3)cc2)CC1
2. C/C(CC(=O)Nc1cccc(C(F)(F)F)c1)=N\NC(=O)C(=O)NCC(C)C

Result ::
[-0.258, -0.237]

// data source = PubChem BioAssay AID1381
